# assay_remarks: MRT in Wistar rat at 10 mg/kg, po by LC-MS/MS analysis
# Type: ADME, organism-based
# conditions: in vivo
measured_property: MRT (h)
The reply should contain only the number, in h.

Entry Cl.N#C/C(=C\c1cccc2cnccc12)c1c[nH]c2ccccc12 — recorded MRT = 1.89

----------
# assay_remarks: Solubility of the compound in 60% PEG400/40% water at pH 5 by HPLC analysis
# Format: physicochemical
measured_property: solubility (µg/mL)
The reply should contain only the number, in µg/mL.

Entry Cl.N#C/C(=C\c1cccc2cnccc12)c1c[nH]c2ccccc12 — recorded solubility = 940

----------
# assay_remarks: Solubility of the compound in 10% DMSO/90% water at pH 7 by HPLC analysis
# Assay type: physicochemical
measured_property: solubility (µg/mL)
The reply should contain only the number, in µg/mL.

Entry Cl.N#C/C(=C\c1cccc2cnccc12)c1c[nH]c2ccccc12 — recorded solubility = 3
